Where do these numbers come from? They come from paper PMC9736855.

# TESTED_TARGET: CAMK4 (Homo sapiens)
# Construct: purchased in-house DSF panel (SGC Frankfurt)
# Sequence (Q16566 46-300): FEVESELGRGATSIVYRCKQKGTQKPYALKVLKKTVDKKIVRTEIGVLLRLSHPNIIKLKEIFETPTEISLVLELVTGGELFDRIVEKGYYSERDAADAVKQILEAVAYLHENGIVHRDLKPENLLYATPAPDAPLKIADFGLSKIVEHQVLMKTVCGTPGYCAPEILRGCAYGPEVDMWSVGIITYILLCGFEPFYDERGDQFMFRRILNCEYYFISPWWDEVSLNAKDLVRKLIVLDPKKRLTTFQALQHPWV
# EXPERIMENTAL_DETAILS: DSF
# Format: binding
# Protocol: Measurements were performed in duplicates.
Lab note: anything with ΔTm CAMK4 below 1 °C is marked t; values at 1 °C or higher are marked f.

>  <COMPOUND>
CC(C)(C)OC(=O)Nc1ccc(CNc2nccc(Nc3cc(C(=O)OC(C)(C)C)[nH]n3)n2)cc1 [43d]

>  <CLASS_ASSIGNMENT>
f

$$$$
>  <COMPOUND>
COC(=O)c1cc(Nc2ccnc(NCCOCCNC(=O)OC(C)(C)C)n2)[nH]n1 [21d]

>  <CLASS_ASSIGNMENT>
t

$$$$
>  <COMPOUND>
CN[C@@H]1C[C@H]2O[C@@](C)([C@@H]1OC)n1c3ccccc3c3c4c(c5c6ccccc6n2c5c31)C(=O)NC4 [staurosporine, reference compound]

>  <CLASS_ASSIGNMENT>
f

$$$$
>  <COMPOUND>
CC(C)OC(=O)c1cc(Nc2ccnc(NCc3ccc(NC(=O)OC(C)(C)C)cc3)n2)n[nH]1 [42d]

>  <CLASS_ASSIGNMENT>
t

$$$$
>  <COMPOUND>
COC(=O)c1cc(Nc2ccnc(NCc3ccc(NC(=O)OC(C)(C)C)cc3)n2)[nH]n1 [21i]

>  <CLASS_ASSIGNMENT>
t

$$$$
>  <COMPOUND>
N#CCc1ccc(Nc2nccc(Nc3cc(C4CC4)[nH]n3)n2)cc1 [compound 1, reference compound]

>  <CLASS_ASSIGNMENT>
f

$$$$

###

# TESTED_TARGET: MAPK15 (Homo sapiens)
# Construct: purchased in-house DSF panel (SGC Frankfurt)
# Sequence (Q8TD08 1-346): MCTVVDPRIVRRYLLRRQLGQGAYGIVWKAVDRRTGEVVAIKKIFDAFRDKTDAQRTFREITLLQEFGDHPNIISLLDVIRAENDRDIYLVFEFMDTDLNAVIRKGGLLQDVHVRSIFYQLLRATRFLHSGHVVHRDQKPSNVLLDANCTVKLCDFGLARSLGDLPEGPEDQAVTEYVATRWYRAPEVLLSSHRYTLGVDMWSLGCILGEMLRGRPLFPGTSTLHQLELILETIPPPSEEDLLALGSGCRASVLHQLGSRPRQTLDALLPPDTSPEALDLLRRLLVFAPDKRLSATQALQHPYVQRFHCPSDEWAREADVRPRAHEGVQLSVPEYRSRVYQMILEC
# EXPERIMENTAL_DETAILS: DSF
# Assay type: binding
Overview of reported ΔTm MAPK15 across a group of compounds:

>  <COMPOUND>
COC(=O)c1cc(Nc2ccnc(NCc3ccc(NC(=O)OC(C)(C)C)cc3)n2)[nH]n1 [21i]

>  <TESTED_TARGET>
MAPK15 (Homo sapiens)

>  <UNIT_ABBREV>
°C

>  <ΔTm MAPK15>
5.9

$$$$
>  <COMPOUND>
COC(=O)c1cc(Nc2ccnc(NCCOCCNC(=O)OC(C)(C)C)n2)[nH]n1 [21d]

>  <TESTED_TARGET>
MAPK15 (Homo sapiens)

>  <UNIT_ABBREV>
°C

>  <ΔTm MAPK15>
4.1

$$$$
>  <COMPOUND>
CC(C)(C)OC(=O)Nc1ccc(CNc2nccc(Nc3cc(C(=O)OC(C)(C)C)[nH]n3)n2)cc1 [43d]

>  <TESTED_TARGET>
MAPK15 (Homo sapiens)

>  <UNIT_ABBREV>
°C

>  <ΔTm MAPK15>
5.8

$$$$
>  <COMPOUND>
N#CCc1ccc(Nc2nccc(Nc3cc(C4CC4)[nH]n3)n2)cc1 [compound 1, reference compound]

>  <TESTED_TARGET>
MAPK15 (Homo sapiens)

>  <UNIT_ABBREV>
°C

>  <ΔTm MAPK15>
17.4

$$$$
>  <COMPOUND>
CC(C)OC(=O)c1cc(Nc2ccnc(NCc3ccc(NC(=O)OC(C)(C)C)cc3)n2)n[nH]1 [42d]

>  <TESTED_TARGET>
MAPK15 (Homo sapiens)

>  <UNIT_ABBREV>
°C

>  <ΔTm MAPK15>
7.0

$$$$

###

Reported ΔTm CAMKK2 by item:
# TESTED_TARGET: CAMKK2 (Homo sapiens)
# Construct: purchased in-house DSF panel (SGC Frankfurt)
# Sequence (Q96RR4 161-449): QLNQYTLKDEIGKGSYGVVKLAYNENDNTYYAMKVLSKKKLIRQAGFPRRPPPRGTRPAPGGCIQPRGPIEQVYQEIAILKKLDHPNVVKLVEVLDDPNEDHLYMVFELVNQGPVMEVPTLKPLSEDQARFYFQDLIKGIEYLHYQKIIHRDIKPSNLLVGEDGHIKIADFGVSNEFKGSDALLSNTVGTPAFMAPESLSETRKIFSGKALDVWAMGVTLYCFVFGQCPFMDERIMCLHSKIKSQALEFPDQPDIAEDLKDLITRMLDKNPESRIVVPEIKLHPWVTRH
# EXPERIMENTAL_DETAILS: DSF
# Type: binding

>  <COMPOUND>
CC(C)OC(=O)c1cc(Nc2ccnc(NCc3ccc(NC(=O)OC(C)(C)C)cc3)n2)n[nH]1 [42d]

>  <TESTED_TARGET>
CAMKK2 (Homo sapiens)

>  <UNIT_ABBREV>
°C

>  <ΔTm CAMKK2>
-0.6

$$$$
>  <COMPOUND>
COC(=O)c1cc(Nc2ccnc(NCCOCCNC(=O)OC(C)(C)C)n2)[nH]n1 [21d]

>  <TESTED_TARGET>
CAMKK2 (Homo sapiens)

>  <UNIT_ABBREV>
°C

>  <ΔTm CAMKK2>
0.5

$$$$
>  <COMPOUND>
CC(C)(C)OC(=O)Nc1ccc(CNc2nccc(Nc3cc(C(=O)OC(C)(C)C)[nH]n3)n2)cc1 [43d]

>  <TESTED_TARGET>
CAMKK2 (Homo sapiens)

>  <UNIT_ABBREV>
°C

>  <ΔTm CAMKK2>
0.1

$$$$
>  <COMPOUND>
COC(=O)c1cc(Nc2ccnc(NCc3ccc(NC(=O)OC(C)(C)C)cc3)n2)[nH]n1 [21i]

>  <TESTED_TARGET>
CAMKK2 (Homo sapiens)

>  <UNIT_ABBREV>
°C

>  <ΔTm CAMKK2>
1.1

$$$$
>  <COMPOUND>
N#CCc1ccc(Nc2nccc(Nc3cc(C4CC4)[nH]n3)n2)cc1 [compound 1, reference compound]

>  <TESTED_TARGET>
CAMKK2 (Homo sapiens)

>  <UNIT_ABBREV>
°C

>  <ΔTm CAMKK2>
12.0

$$$$

###

# TESTED_TARGET: SRC (Homo sapiens);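 also: compound tested at 10 µM with 2 µM protein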
# Construct: purchased in-house DSF panel (SGC Frankfurt)
# Sequence (P12931 254-536): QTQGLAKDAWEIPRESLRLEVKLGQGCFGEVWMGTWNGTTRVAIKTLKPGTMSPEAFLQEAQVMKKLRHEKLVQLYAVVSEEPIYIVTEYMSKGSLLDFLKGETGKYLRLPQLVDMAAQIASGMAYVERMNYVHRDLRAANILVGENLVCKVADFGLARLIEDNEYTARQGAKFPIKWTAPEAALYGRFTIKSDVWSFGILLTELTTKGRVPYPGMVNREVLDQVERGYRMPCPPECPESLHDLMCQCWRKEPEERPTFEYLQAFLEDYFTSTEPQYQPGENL
# EXPERIMENTAL_DETAILS: DSF
# Format: binding
Let's look at some molecules and their measured ΔTm SRC.
RESULT_TYPE: ΔTm SRC (°C)

>  <MOLECULE>
COC(=O)c1cc(Nc2ccnc(NCCOCCNC(=O)OC(C)(C)C)n2)[nH]n1 [21d]

>  <NUMBER>
0.5

$$$$
>  <MOLECULE>
CC(C)(C)OC(=O)Nc1ccc(CNc2nccc(Nc3cc(C(=O)OC(C)(C)C)[nH]n3)n2)cc1 [43d]

>  <NUMBER>
0.6

$$$$
>  <MOLECULE>
CC(C)OC(=O)c1cc(Nc2ccnc(NCc3ccc(NC(=O)OC(C)(C)C)cc3)n2)n[nH]1 [42d]

>  <NUMBER>
0.4

$$$$
>  <MOLECULE>
COC(=O)c1cc(Nc2ccnc(NCc3ccc(NC(=O)OC(C)(C)C)cc3)n2)[nH]n1 [21i]

>  <NUMBER>
0.6

$$$$
>  <MOLECULE>
N#CCc1ccc(Nc2nccc(Nc3cc(C4CC4)[nH]n3)n2)cc1 [compound 1, reference compound]

>  <NUMBER>
4.4

$$$$

###

# TESTED_TARGET: CDK13/Cyclin K (Homo sapiens, UniProt Q14004)
# Construct: Full-length kinases were obtained as plasmids cloned in frame with a terminal NanoLuc-fusion; CS1810C93 (CCNK)
# Sequence (Q14004 whole entry, the tested form may be a part): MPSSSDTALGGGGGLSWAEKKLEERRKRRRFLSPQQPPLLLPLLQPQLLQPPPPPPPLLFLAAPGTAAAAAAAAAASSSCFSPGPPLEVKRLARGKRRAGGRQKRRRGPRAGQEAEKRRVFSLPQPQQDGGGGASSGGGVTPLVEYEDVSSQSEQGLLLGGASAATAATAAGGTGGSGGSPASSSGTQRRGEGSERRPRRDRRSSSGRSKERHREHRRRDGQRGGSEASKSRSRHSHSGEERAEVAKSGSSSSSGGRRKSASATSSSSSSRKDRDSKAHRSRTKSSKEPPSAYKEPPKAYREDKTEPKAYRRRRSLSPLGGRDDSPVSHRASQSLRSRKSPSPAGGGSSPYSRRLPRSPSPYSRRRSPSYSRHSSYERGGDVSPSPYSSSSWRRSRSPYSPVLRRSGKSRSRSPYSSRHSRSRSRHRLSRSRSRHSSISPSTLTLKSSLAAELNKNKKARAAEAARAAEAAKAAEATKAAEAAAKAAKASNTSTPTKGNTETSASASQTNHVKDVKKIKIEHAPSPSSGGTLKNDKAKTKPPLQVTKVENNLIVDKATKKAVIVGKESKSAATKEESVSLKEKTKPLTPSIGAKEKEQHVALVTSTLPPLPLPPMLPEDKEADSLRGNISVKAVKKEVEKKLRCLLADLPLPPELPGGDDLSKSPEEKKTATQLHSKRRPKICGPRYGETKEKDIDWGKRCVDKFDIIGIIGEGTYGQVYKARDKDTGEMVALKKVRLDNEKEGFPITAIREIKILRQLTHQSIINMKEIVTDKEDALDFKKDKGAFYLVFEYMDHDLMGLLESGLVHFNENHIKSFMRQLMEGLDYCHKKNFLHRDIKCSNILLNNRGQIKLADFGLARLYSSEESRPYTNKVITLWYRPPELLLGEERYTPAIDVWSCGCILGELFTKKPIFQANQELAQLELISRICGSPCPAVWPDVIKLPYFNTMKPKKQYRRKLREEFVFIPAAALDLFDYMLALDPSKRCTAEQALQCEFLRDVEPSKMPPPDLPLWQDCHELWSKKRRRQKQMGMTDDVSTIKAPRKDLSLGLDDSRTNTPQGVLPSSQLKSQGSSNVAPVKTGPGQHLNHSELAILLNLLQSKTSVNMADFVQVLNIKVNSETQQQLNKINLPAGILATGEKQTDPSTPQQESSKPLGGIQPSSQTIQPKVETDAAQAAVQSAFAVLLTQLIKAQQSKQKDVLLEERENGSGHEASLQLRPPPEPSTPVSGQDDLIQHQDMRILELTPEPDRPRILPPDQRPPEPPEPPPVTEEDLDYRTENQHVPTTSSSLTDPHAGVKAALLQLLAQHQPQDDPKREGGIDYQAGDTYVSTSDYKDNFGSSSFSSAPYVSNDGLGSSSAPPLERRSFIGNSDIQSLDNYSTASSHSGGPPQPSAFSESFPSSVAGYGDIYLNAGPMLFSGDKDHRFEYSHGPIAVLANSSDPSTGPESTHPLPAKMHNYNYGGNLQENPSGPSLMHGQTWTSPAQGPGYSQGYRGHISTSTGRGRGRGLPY
# Sequence (O75909 whole entry partner, the tested form may be a part): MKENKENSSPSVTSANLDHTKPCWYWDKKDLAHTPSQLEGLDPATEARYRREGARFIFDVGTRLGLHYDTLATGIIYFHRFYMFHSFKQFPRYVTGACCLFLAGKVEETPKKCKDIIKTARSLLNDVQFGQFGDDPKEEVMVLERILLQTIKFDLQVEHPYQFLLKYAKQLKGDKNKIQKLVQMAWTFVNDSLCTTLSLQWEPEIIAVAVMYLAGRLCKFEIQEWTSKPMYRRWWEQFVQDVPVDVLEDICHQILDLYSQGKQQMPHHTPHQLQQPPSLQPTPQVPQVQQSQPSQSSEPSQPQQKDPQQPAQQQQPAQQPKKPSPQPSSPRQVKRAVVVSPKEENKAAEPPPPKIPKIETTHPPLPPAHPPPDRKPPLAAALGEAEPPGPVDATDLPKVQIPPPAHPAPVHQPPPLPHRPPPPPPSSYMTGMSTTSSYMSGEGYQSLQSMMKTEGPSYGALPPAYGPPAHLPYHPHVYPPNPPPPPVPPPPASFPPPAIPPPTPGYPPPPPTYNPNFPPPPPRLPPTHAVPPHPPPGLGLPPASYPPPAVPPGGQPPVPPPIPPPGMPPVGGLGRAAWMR
# EXPERIMENTAL_DETAILS: NanoBRET
# CONDITION_DESCRIPTION: read-out: NanoBRET EC50 ± SEM CDK13/Cyclin K
pEC50: −log10 of the molar value.
# pEC50 per record follows
RESULT_TYPE: pEC50

>  <COMPOUND>
N#CCc1ccc(Nc2nccc(Nc3cc(C4CC4)[nH]n3)n2)cc1 [compound 1, reference compound]

>  <TESTED_TARGET>
CDK13/Cyclin K (Homo sapiens, UniProt Q14004)

>  <NUMBER>
7.18

$$$$
>  <COMPOUND>
COC(=O)c1cc(Nc2ccnc(NCc3ccc(NC(=O)OC(C)(C)C)cc3)n2)[nH]n1 [21i]

>  <TESTED_TARGET>
CDK13/Cyclin K (Homo sapiens, UniProt Q14004)

>  <NUMBER>
4.62

$$$$
>  <COMPOUND>
CC(C)OC(=O)c1cc(Nc2ccnc(NCc3ccc(NC(=O)OC(C)(C)C)cc3)n2)n[nH]1 [42d]

>  <TESTED_TARGET>
CDK13/Cyclin K (Homo sapiens, UniProt Q14004)

>  <NUMBER>
5.42

$$$$

###

# TESTED_TARGET: GSG2 (Homo sapiens, UniProt Q8TF76)
# Construct: purchased in-house DSF panel (SGC Frankfurt)
# Sequence (Q8TF76 465-798): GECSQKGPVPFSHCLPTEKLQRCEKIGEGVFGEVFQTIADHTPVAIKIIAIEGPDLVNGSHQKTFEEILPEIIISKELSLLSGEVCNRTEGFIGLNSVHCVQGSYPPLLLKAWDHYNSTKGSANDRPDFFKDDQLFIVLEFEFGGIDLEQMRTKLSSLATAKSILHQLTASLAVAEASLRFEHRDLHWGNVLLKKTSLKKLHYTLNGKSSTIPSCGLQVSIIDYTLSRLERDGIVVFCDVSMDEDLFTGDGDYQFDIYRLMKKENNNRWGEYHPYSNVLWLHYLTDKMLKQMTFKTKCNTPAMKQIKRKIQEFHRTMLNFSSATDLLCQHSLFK
# EXPERIMENTAL_DETAILS: DSF
# Type: binding
Classification field: enter TRUE for ΔTm GSG2 values not below 0.5 °C, FALSE for values below it.

>  <MOLECULE>
N#CCc1ccc(Nc2nccc(Nc3cc(C4CC4)[nH]n3)n2)cc1 [compound 1, reference compound]

>  <CLASS_ASSIGNMENT>
TRUE

$$$$
>  <MOLECULE>
COC(=O)c1cc(Nc2ccnc(NCc3ccc(NC(=O)OC(C)(C)C)cc3)n2)[nH]n1 [21i]

>  <CLASS_ASSIGNMENT>
FALSE

$$$$
>  <MOLECULE>
COC(=O)c1cc(Nc2ccnc(NCCOCCNC(=O)OC(C)(C)C)n2)[nH]n1 [21d]

>  <CLASS_ASSIGNMENT>
FALSE

$$$$
>  <MOLECULE>
CC(C)(C)OC(=O)Nc1ccc(CNc2nccc(Nc3cc(C(=O)OC(C)(C)C)[nH]n3)n2)cc1 [43d]

>  <CLASS_ASSIGNMENT>
FALSE

$$$$
